Would you mind telling me the reported PRE Application AMARE, percentage damage on five-point scale of each entry?
Tested on: Amaranthus retoflexus (AMARE)
Test: Pre-emergence herbicidal glasshouse test (Table B1)
Type: in vivo
Settings: applied at 125 g/ha, evaluated after 13 days

Req: So what's the measured PRE Application AMARE, percentage damage on five-point scale for this one? `Cn1nnnc1NC(=O)c1ccc(OC(F)(F)F)c(NC(=O)c2ccccn2)c1Cl`
Resp: 5 (5=80-100%)

Req: So what's the measured PRE Application AMARE, percentage damage on five-point scale for this one? `CCC(=O)N(CC)c1c(OC(F)F)ccc(C(=O)Nc2nnnn2C)c1C(F)(F)F`
Resp: 5 (5=80-100%)

Req: So what's the measured PRE Application AMARE, percentage damage on five-point scale for this one? `Cn1nnnc1NC(=O)c1ccc(OC(F)F)c(NC(=O)c2cc(Cl)sc2Cl)c1Cl`
Resp: 2 (2=20-39%)

Req: So what's the measured PRE Application AMARE, percentage damage on five-point scale for this one? `COc1ccccc1C(=O)Nc1c(OC(F)(F)F)ccc(C(=O)Nc2nnnn2C)c1Cl`
Resp: 3 (3=40-59%)

Req: So what's the measured PRE Application AMARE, percentage damage on five-point scale for this one? `CCn1nnnc1NC(=O)c1ccc(OC(F)(F)F)c(NC(=O)C(F)F)c1Cl`
Resp: 5 (5=80-100%)

Req: So what's the measured PRE Application AMARE, percentage damage on five-point scale for this one? `Cn1nnnc1NC(=O)c1ccc(OC(F)(F)F)c(NC(=O)C(F)F)c1Cl`
Resp: 5 (5=80-100%)

---

Tested on: Echinochloa crus-galh (ECHCG)
Assay: Pre-emergence herbicidal glasshouse test (Table B1)
Type: in vivo
Details: applied at 500 g/h, evaluated after 13 days
Description: Seeds of a variety of test species are sown in standard soil in pots (Lolium perenne (LOLPE), Amaranthus retoflexus (AMARE), Abutilon theophrasti (ABUTH), Setaria faberi (SETFA), Echinochloa crus-galh (ECHCG), Ipomoea hederacea (IPOHE)). […] After 13 days for pre and post-emergence, the test is evaluated for the percentage damage caused to the plant. […]
measured.endpoint: PRE Application ECHCG, percentage damage on five-point scale

Req: So what's the measured PRE Application ECHCG, percentage damage on five-point scale for this one? `CC(C)C(=O)Nc1c(OC(F)(F)F)ccc(C(=O)Nc2nnnn2C)c1Cl`
Resp: 5 (5=80-100%)

Req: So what's the measured PRE Application ECHCG, percentage damage on five-point scale for this one? `COCCC(=O)Nc1c(OC(F)(F)F)ccc(C(=O)Nc2nnnn2C)c1Cl`
Resp: 5 (5=80-100%)

Req: So what's the measured PRE Application ECHCG, percentage damage on five-point scale for this one? `COc1ccc(C(=O)Nc2nnnn2C)c(Cl)c1NC(=O)C1CC1`
Resp: 5 (5=80-100%)

Req: So what's the measured PRE Application ECHCG, percentage damage on five-point scale for this one? `CCC(CC)C(=O)Nc1c(OC(F)(F)F)ccc(C(=O)Nc2nnnn2CC)c1Cl`
Resp: 5 (5=80-100%)

Req: So what's the measured PRE Application ECHCG, percentage damage on five-point scale for this one? `CCCC(=O)Nc1c(OC(F)(F)F)ccc(C(=O)Nc2nnnn2C)c1Cl`
Resp: 5 (5=80-100%)

Req: So what's the measured PRE Application ECHCG, percentage damage on five-point scale for this one? `CCC(=O)Nc1c(OC(F)(F)C(F)F)ccc(C(=O)Nc2nnnn2CC)c1Cl`
Resp: 3 (3=40-59%)

Req: So what's the measured PRE Application ECHCG, percentage damage on five-point scale for this one? `CCn1nnnc1NC(=O)c1ccc(OC(F)(F)C(F)F)c(NC(=O)C2CC2)c1Cl`
Resp: 5 (5=80-100%)

Req: So what's the measured PRE Application ECHCG, percentage damage on five-point scale for this one? `Cn1nnnc1NC(=O)c1ccc(OC(F)(F)F)c(NC(=O)CC2CC2)c1Cl`
Resp: 5 (5=80-100%)

Req: So what's the measured PRE Application ECHCG, percentage damage on five-point scale for this one? `Cn1nnnc1NC(=O)c1ccc(OC(F)(F)F)c(NC(=O)C2CC2)c1Cl`
Resp: 5 (5=80-100%)

Req: So what's the measured PRE Application ECHCG, percentage damage on five-point scale for this one? `CCn1nnnc1NC(=O)c1ccc(OC(F)(F)F)c(NC(=O)CCOC)c1Cl`
Resp: 5 (5=80-100%)

Req: So what's the measured PRE Application ECHCG, percentage damage on five-point scale for this one? `Cn1nnnc1NC(=O)c1ccc(OCC(F)(F)F)c(NC(=O)C2CC2)c1Cl`
Resp: 5 (5=80-100%)

Req: So what's the measured PRE Application ECHCG, percentage damage on five-point scale for this one? `COc1ccc(C(=O)Nc2nnnn2C)c(Cl)c1NC(C)=O`
Resp: 3 (3=40-59%)

Req: So what's the measured PRE Application ECHCG, percentage damage on five-point scale for this one? CCn1nnnc1NC(=O)c1ccc(OC(F)(F)F)c(NC(=O)C(C)F)c1Cl (stereo not drawn)
Resp: 5 (5=80-100%)

Req: So what's the measured PRE Application ECHCG, percentage damage on five-point scale for this one? `CCn1nnnc1NC(=O)c1ccc(OC(F)F)c(NC(=O)CC2CC2)c1Cl`
Resp: 3 (3=40-59%)

Req: So what's the measured PRE Application ECHCG, percentage damage on five-point scale for this one? `CC(=O)Nc1c(OC(F)(F)F)ccc(C(=O)Nc2nnnn2C)c1Cl`
Resp: 5 (5=80-100%)
